- method: Baseline equilibrium BCF predicted from DMLW and phospholipid content
- Set-up: species or system fish
- condition-parameters: fML of 1%
Please mark Yes if the recorded Factor by which BCFbaseline estimate exceeds empirical BCF or BAF is equal to or greater than 50, and No if it falls below.

1. CCCCCCCCCCCCCCN(C)C [T14, N,N-Dimethyltetradecylamine] = No
2. CCCCCCCCCCCCCC[N+](C)(C)C.[Cl-] [Q14] = No
3. CCCCCCCCCCCCCN [P13, Tridecylamine] = No
4. CCCCCCCCCC[N+](C)(C)CCCCCCCCCC [DDAC, didecyldimethylammonium chloride] = Yes
5. CCCCCCCCCCCCCCCCCCN(C)C [T18, N,N‐dimethyloctadecylamine] = Yes
6. CCCCCCCCCCCCCCCCN(C)C [T16, N,N-Dimethylhexadecylamine] = No
7. CCCCCCCCCCCCCCCCN [P16, Hexadecylamine] = Yes

###

- method: Rainbow trout liver S9 substrate depletion assay
- Type: in vitro ADME, rainbow trout (Oncorhynchus mykiss)
- condition-parameters: active RT-S9, tested individually, up to 2 h
recorded-endpoint: Depletion / biotransformation in RT-S9 assay (in words)

1. CCCCCCCCCCCCCCN = No significant depletion
2. CCCCCCCCCCCCN = No significant depletion
3. CCCCCCCCCCCCCC[N+](C)(C)Cc1ccccc1.[Cl-] = No significant depletion
